tested on: 485176-168-R4-J1-PDC complex spheroid growth; experiment: Anticancer human tumor 485176-168-R4-J1-PDC patient-derived pancreatic adenocarcinoma cell line growth inhibition [RAS]; conditions: second compound 0.003 µM; first compound 0.1 µM; hits give low values;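 also: spheroids exposed to compounds for seven days before readout; luminescence viability expressed relative to DMSO vehicle wells set as 100%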
Overview of recorded viability, T/C for various compounds
Experimental readout: viability, T/C (%)

compound="Cc1nc(N2CCC3(CC2)COC(C)C3N)c(CO)nc1Sc1ccnc(N)c1Cl (configuration not stated) + CCn1c(-c2cccnc2C(C)OC)c2c3cc(ccc31)N1CCOC(CC(NC(=O)C(C(C)C)N(C)C(=O)C3(F)CCN(C(=O)C#CC(C)(C)N(C)C)CC3)C(=O)N3CCCC(N3)C(=O)OCC(C)(C)C2)C1" assay_value=103
compound="CC(C)n1nc(-c2ccc3oc(N)nc3c2)c2c(N)ncnc21 + CCn1c(-c2cc(N3CCN(C)CC3)cnc2C(C)OC)c2c3cc(ccc31)-c1csc(n1)CC(NC(=O)C1CC1C)C(=O)N1CCCC(N1)C(=O)OCC(C)(C)C2" assay_value=18.5
